Tested on: MCF-7
Measurement Protocol: MTT antiproliferative assay, MCF-7
Format: cell-based, human
Study Conditions: MTT, 72 h, breast cancer cells; read-out: IC50 Values (μM) ± SEM MCF-7
Measured Property: IC50 (µM)

- CC1CN(CCCNCc2ccc(-c3nc(-c4ccc(CNCCCN5CCNC(C)C5)cc4)c4cccc(-c5ccccc5)c4n3)cc2)CCN1 (stereo not shown) [Compound 12m]: 1.22
- CC1CN(CCCNCc2ccc(-c3cc(-c4ccc(CNCCCN5CCNC(C)C5)cc4)c4cc(-c5ccccc5)ccc4n3)cc2)CCN1 (stereo not shown) [Compound 13c]: 0.86
- CN(C)CCCNCc1ccc(-c2nc(-c3ccc(CNCCCN(C)C)cc3)c3cccc(-c4ccccc4)c3n2)cc1 [Compound 12k]: 1.24
- CN(C)CCCNCc1ccc(-c2nc(-c3ccc(CNCCCN(C)C)cc3)c3c(-c4ccccc4)cccc3n2)cc1 [Compound 12a]: 1.12

###

Assay Target: BCL-2
Measurement Protocol: Native electrospray mass spectrometry, BCL-2
Type: binding
Study Conditions: second binding event (2:1 complex); 10 µM DNA, 20 µM ligand; read-out: Kd2 BCL-2
Procedure: These parameters ensured a good signal intensity without disrupting noncovalent complexes, which was verified using d[G4T4G4]2 as a control. Oligonucleotides were purchased lyophilized, and RP-cartridge purified from Eurogentec (Kanaka Eurogentec, Seraing, Belgium), then buffer exchanged with ammonium acetate (5 M; Sigma-Aldrich, Saint-Quentin-Fallavier, France) using Amicon Ultra (3 K cut-off; Merck Millipore, Cork, Ireland). […] Kd were calculated as already described.
pKd: −log10 of the molar value.
Measured Property: pKd

• CN(C)CCCNCc1ccc(-c2cc(-c3ccc(CNCCCN(C)C)cc3)c3cc(-c4ccccc4)ccc3n2)cc1 [Compound 13a] = 6.12
• CN(C)CCCNCc1ccc(-c2nc(-c3ccc(CNCCCN(C)C)cc3)c3cc(-c4ccccc4)ccc3n2)cc1 [Compound 12b] = 5.55
• CN1CCN(CCCCNCc2ccc(-c3cc(-c4ccc(CNCCCCN5CCN(C)CC5)cc4)c4cc(-c5ccccc5)ccc4n3)cc2)CC1 [Compound 13d] = 4.70
• CN1CCN(CCCCNCc2ccc(-c3nc(-c4ccc(CNCCCCN5CCN(C)CC5)cc4)c4cc(-c5ccccc5)ccc4n3)cc2)CC1 [Compound 12e] = 5.66

###

pKd by entry:
Assay Target: BCL-2
Measurement Protocol: Native electrospray mass spectrometry, BCL-2
Type: binding
Study Conditions: first binding event (1:1 complex); 10 µM DNA, 20 µM ligand; read-out: Kd1 BCL-2
pKd: −log10 of the molar value.
Measured Property: pKd

* CN1CCN(CCCCNCc2ccc(-c3cc(-c4ccc(CNCCCCN5CCN(C)CC5)cc4)c4cc(-c5ccccc5)ccc4n3)cc2)CC1 [Compound 13d] | 4.28
* CN(C)CCCNCc1ccc(-c2cc(-c3ccc(CNCCCN(C)C)cc3)c3cc(-c4ccccc4)ccc3n2)cc1 [Compound 13a] | 5.80
* CN1CCN(CCCCNCc2ccc(-c3nc(-c4ccc(CNCCCCN5CCN(C)CC5)cc4)c4cc(-c5ccccc5)ccc4n3)cc2)CC1 [Compound 12e] | 5.21
* CN(C)CCCNCc1ccc(-c2nc(-c3ccc(CNCCCN(C)C)cc3)c3cc(-c4ccccc4)ccc3n2)cc1 [Compound 12b] | 5.25

###

Test system: SiHa
Measurement Protocol: MTT antiproliferative assay, SiHa
Format: cell-based, human
Study Conditions: IC50 HEK293 / IC50 SiHa
This section presents compounds with their documented Selectivity Index HEK293/SiHa values.
Measured Property: Selectivity Index HEK293/SiHa

- CN(C)CCCCNCc1ccc(-c2nc(-c3ccc(CNCCCCN(C)C)cc3)c3ccc(-c4ccccc4)cc3n2)cc1 [Compound 12g]: 7.65
- CN1CCN(CCCNCc2ccc(-c3nc(-c4ccc(CNCCCN5CCN(C)CC5)cc4)c4ccc(-c5ccccc5)cc4n3)cc2)CC1 [Compound 12i]: >32.6
- CN1CCN(CCCCNCc2ccc(-c3nc(-c4ccc(CNCCCCN5CCN(C)CC5)cc4)c4ccc(-c5ccccc5)cc4n3)cc2)CC1 [Compound 12j]: 14.85
- CN(C)CCCNCc1ccc(-c2nc(-c3ccc(CNCCCN(C)C)cc3)c3ccc(-c4ccccc4)cc3n2)cc1 [Compound 12f]: >40.0
- CN(C)CCCNCc1ccc(-c2cc(-c3ccc(CNCCCN(C)C)cc3)c3cc(-c4ccccc4)ccc3n2)cc1 [Compound 13a]: >30.3
- CN(C)CCCNCc1ccc(-c2nc(-c3ccc(CNCCCN(C)C)cc3)c3cc(-c4ccccc4)ccc3n2)cc1 [Compound 12b]: >27.8
